Taken from the RepoRT retention time repository (doi:10.1007/s11306-011-0298-z).

Consider the following compounds and their measured LC retention time readings.
assay-notes: RP, Waters ACQUITY UPLC HSS T3, 100 × 2.1 mm, 1.8 µm, 30 °C, 0.3 mL/min, estimated dead time 0.73 min; A: water + 0.1% formic acid, pH 3; B: methanol + 0.1% formic acid, pH 3; gradient (min/%B) 0/0 6/0 56/100 60/100
test-context: stereoisomer not certain
reported-metric: LC retention time (min)

1. Cc1ncc(CO)c(CN)c1O [pyridoxamine] ... 1.42
2. CC(CCC(=O)O)C1CCC2C3CC(O)C4CC(O)CCC4(C)C3CCC12C (stereo not given) [hyodeoxycholic acid] ... 46.4
3. CCOc1cc(C=O)ccc1O [3-ethoxy-4-hydroxybenzaldehyde] ... 27.2
4. O=c1cc(-c2ccc(O)c(O)c2)oc2c(C3OC(CO)C(O)C(O)C3O)c(O)cc(O)c12 (stereo not given) [orientin] ... 25.5
5. CC(=O)C(=O)O [pyruvic acid] ... 1.79
6. CCC=CCC1C(=O)CCC1CC(=O)OC (stereo not given) [methyl jasmonate] ... 38.4
7. O=C(O)CC(O)(CC(=O)O)C(=O)O [citric acid] ... 3.91
8. Nc1ncnc2c1ncn2C1OC(COP(=O)(O)OP(=O)(O)OCC2OC([n+]3cccc(C(=O)O)c3)C(O)C2O)C(O)C1O (stereo not given) [nicotinic acid adenin dinucleotide] ... 8.3
9. CCC=CCC1C(=O)CCC1CC(=O)O (stereo not given) [jasmonic acid] ... 33.7
10. CCCCCCCCCC(=O)O [decanoic acid] ... 45.6
11. C1CCNC1 [pyrrolidine] ... 1.5
12. O=C[C@H](O)[C@@H](O)[C@@H](O)[C@H](O)C(=O)O [D-(+)galacturonic acid] ... 1.33
13. NC(=O)CC[C@H](N)C(=O)O [L-Glutamine] ... 1.3
14. C[N+](C)(C)CC(=O)[O-] [betaine] ... 1.38
15. COc1cc(/C=C/C(=O)O)cc(OC)c1O [sinapic acid] ... 25.9
16. O=c1cc[nH]c(=O)[nH]1 [uracil] ... 2.98
17. Oc1ccc(/C=C\c2cc(O)cc(O)c2)cc1 [cis-resveratrol] ... 30.4
18. Oc1ccc(C=Cc2cc(O)cc3c2C(c2cc(O)cc(O)c2)C(c2ccc(O)cc2)O3)cc1 (stereo not given) ... 33.5
19. CC(CCC(=O)NCCS(=O)(=O)O)C1CCC2C3C(O)CC4CC(O)CCC4(C)C3CC(O)C12C (stereo not given) [taurocholic acid] ... 42.3
20. CCCCCCCCCCCC=CC=CC=CC=CC=CC(=O)O [Docosapentaenoic acid] ... 54
